details: in methyl acetate, 293.15 K
metric: solubility (mole fraction)
Keep it simple and answer with nothing but the number.

Kindly note the recorded solubility (mole fraction) for COC(=O)c1cc(OC)c2c(c1-c1c(C(=O)OC)cc(OC)c3c1OCO3)OCO2 , which is 0.00549

====

details: in n-butanol, 293.15 K
metric: solubility (mole fraction)

What the record says about COC(=O)c1cc(OC)c2c(c1-c1c(C(=O)OC)cc(OC)c3c1OCO3)OCO2 : solubility (mole fraction) is 5.71e-05

====

conditions: in n-butanol, 313.15 K
metric: solubility (mole fraction)
Simply state the number, no unit and no words.

Reported solubility (mole fraction) for COC(=O)c1cc(OC)c2c(c1-c1c(C(=O)OC)cc(OC)c3c1OCO3)OCO2 was 0.000214
